Record form. Attribute: EC50. Fill in for each entry.
# target.of.assay: KOR (Homo sapiens, UniProt P41145)
# Sequence (P41145 whole entry): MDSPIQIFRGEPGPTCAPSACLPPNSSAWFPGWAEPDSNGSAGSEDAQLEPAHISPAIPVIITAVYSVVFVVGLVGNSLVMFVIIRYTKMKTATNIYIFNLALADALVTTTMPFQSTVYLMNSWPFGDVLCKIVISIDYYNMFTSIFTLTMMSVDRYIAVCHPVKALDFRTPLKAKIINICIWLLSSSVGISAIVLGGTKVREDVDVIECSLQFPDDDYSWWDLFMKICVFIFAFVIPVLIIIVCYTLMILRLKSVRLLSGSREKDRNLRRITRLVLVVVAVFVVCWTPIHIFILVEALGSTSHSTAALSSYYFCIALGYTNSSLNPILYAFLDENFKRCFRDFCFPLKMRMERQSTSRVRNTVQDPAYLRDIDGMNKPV
# test.protocol: DISCOVERX β-arrestin […] assay, agonist mode (KOR DRx)
# Type: cell-based
# condition.details: agonist; n = 4; Table 11; read-out: Potency, EC50 (DRx)
Answer format: numeric, µM implied, no suffix.

Lab book: EC50 of `COc1ccc(Cn2c(SCc3ccc(Cl)c(Cl)c3)nnc2-c2ccccn2)cc1` noted as 11.8

Lab book: EC50 of `FC(F)(F)c1cc(CSc2nnc(-c3ccccn3)n2Cc2ccccc2)ccc1Cl` noted as 2.22

Lab book: EC50 of `FC(F)(F)c1cc(CSc2nnc(-c3ccc(Br)cc3)n2Cc2ccco2)ccc1Cl` noted as 13.3

Lab book: EC50 of `Clc1ccc(CSc2nnc(-c3ccccn3)n2Cc2cccnc2)cc1Cl` noted as 0.76

Lab book: EC50 of `FC(F)(F)c1cc(CSc2nnc(-c3ccccn3)n2Cc2ccccc2Cl)ccc1Cl` noted as 4.3

Lab book: EC50 of `Brc1ccc(CSc2nnc(-c3ccc(Br)cc3)n2Cc2ccco2)cc1` noted as 13.5

Lab book: EC50 of `Brc1ccc(CSc2nnc(-c3ccccn3)n2Cc2ccccc2)cc1` noted as 4.06

Lab book: EC50 of `Brc1ccc(CSc2nnc(-c3ccccn3)n2Cc2cccnc2)cc1` noted as 8.51

Lab book: EC50 of `Clc1ccc(CSc2nnc(-c3ccccn3)n2Cc2ccccc2)cc1Cl` noted as 1.24

Lab book: EC50 of `Clc1ccc(CSc2nnc(-c3ccc(Br)cc3)n2Cc2ccco2)cc1Cl` noted as 11

====

# target.of.assay: NET (Homo sapiens, UniProt P23975)
# Sequence (P23975 whole entry): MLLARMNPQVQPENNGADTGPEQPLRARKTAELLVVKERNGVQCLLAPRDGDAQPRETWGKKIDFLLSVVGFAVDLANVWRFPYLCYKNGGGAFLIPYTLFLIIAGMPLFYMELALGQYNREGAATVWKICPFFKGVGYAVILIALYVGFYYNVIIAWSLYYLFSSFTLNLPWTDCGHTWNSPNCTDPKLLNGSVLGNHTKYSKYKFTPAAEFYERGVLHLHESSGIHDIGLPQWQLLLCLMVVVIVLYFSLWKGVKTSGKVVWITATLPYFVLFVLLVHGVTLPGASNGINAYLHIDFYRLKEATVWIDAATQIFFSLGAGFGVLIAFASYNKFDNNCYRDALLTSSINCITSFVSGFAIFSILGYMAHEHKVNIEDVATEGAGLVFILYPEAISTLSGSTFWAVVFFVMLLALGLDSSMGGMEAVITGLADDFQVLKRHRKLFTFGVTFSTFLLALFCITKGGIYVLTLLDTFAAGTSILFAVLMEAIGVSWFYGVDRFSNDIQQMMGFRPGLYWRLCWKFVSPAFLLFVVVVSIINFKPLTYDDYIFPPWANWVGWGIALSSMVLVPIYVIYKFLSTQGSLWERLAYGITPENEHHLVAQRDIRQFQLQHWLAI
# test.protocol: PDSP radioligand binding assay
# condition.details: Table 10
readout.type: Ki (µM)
Answer format: numeric, µM implied, no suffix.

Lab book: Ki of Clc1ccc(CSc2nnc(-c3ccccn3)n2Cc2ccco2)cc1Cl [Compound 2{8}] noted as 5.87

====

# target.of.assay: D1 (Homo sapiens)
# Sequence (P21728 whole entry): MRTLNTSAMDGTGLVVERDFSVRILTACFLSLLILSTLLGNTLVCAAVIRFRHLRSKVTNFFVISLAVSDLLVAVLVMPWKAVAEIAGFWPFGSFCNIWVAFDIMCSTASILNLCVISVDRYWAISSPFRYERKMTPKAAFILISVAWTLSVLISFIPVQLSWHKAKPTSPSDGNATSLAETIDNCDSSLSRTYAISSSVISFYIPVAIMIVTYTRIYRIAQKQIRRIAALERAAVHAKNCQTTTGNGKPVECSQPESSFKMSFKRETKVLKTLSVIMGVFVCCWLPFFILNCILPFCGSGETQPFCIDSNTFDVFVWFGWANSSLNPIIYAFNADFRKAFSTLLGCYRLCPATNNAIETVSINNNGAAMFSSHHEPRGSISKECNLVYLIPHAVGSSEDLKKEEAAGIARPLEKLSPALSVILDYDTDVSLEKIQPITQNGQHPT
# test.protocol: PDSP radioligand binding assay
# condition.details: Table 5
pKi: −log10 of the molar value.
readout.type: pKi

Lab book: pKi of `COc1ccc(N2CCN(CCCNC(=O)Cn3c(=O)c4cccn4c4c(C)ccnc43)CC2)cc1` noted as < 5.00

====

# test.protocol: in vitro
# condition.details: PAMPA, pH 7.4
readout.type: Papp (×10⁻⁶ cm/s)
Answer format: numeric, ×10⁻⁶ cm/s implied, no suffix.

Lab book: Papp of `COc1ccc(N2CCN(CCCNC(=O)Cn3c(=O)c4cccn4c4c(C)ccnc43)CC2)cc1` noted as 757

====

Record form. Attribute: pIC50. Fill in for each entry.
# target.of.assay: KOR (Homo sapiens)
# test.protocol: High content imaging β-arrestin translocation assay, KOR antagonist (KOR HCS)
# Assay type: cell-based
# condition.details: antagonist; average; read-out: Potency, Target KOR HCS
Friendly reminder that pIC50 comes from taking -log10 of the concentration in mol/L.

Lab book: pIC50 of COc1ccc(N2CCN(CCCNC(=O)Cn3c(=O)c4cccn4c4cccnc43)CC2)c(OC)c1 [1{9}] noted as 6.31

Lab book: pIC50 of COc1ccc(N2CCN(CCCNC(=O)Cn3c(=O)c4cccn4c4ccccc43)CC2)cc1 [1{2}] noted as 4.82

Lab book: pIC50 of COc1ccc(N2CCN(CCCCNC(=O)Cn3c(=O)c4cccn4c4c(C)ccnc43)CC2)cc1 [1{27}] noted as 8.30

Lab book: pIC50 of O=C(Cn1c(=O)c2cccn2c2cccnc21)NCCCN1CCN(Cc2ccccc2)CC1 [Compound 1{23}] noted as 4.67

Lab book: pIC50 of O=C(Cn1c(=O)c2cccn2c2cccnc21)NCCCN1CCN(c2ccc(Cl)cc2)CC1 [Compound 1{11}] noted as 7.02

Lab book: pIC50 of COc1ccc(N2CCN(CCCNC(=O)Cn3c(=O)c4cccn4c4cc(Br)cnc43)CC2)cc1 [1{14}] noted as 6.16

====

# target.of.assay: 5ht7 (Homo sapiens, UniProt P34969)
# Sequence (P34969 whole entry, species assumed): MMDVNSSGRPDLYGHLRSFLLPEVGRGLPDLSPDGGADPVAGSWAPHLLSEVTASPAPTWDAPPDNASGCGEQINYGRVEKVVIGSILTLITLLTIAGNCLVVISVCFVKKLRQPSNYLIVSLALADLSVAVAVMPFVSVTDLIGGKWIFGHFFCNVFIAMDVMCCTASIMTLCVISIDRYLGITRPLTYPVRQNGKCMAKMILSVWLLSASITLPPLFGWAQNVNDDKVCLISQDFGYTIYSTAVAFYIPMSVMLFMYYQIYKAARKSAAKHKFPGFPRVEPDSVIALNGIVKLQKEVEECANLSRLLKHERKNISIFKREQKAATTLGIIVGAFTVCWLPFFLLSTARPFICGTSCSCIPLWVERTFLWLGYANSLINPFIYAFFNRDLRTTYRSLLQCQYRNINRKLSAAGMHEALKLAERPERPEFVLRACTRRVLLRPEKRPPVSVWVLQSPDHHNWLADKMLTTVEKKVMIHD
# test.protocol: PDSP radioligand binding assay
# condition.details: Table 10
pKi: −log10 of the molar value.
readout.type: pKi

Lab book: pKi of `Clc1ccc(CSc2nnc(-c3ccccn3)n2Cc2ccco2)cc1Cl` noted as < 5.00

====

Record form. Attribute: pEC50. Fill in for each entry.
# target.of.assay: MOR (Homo sapiens)
# Sequence (P35372 whole entry): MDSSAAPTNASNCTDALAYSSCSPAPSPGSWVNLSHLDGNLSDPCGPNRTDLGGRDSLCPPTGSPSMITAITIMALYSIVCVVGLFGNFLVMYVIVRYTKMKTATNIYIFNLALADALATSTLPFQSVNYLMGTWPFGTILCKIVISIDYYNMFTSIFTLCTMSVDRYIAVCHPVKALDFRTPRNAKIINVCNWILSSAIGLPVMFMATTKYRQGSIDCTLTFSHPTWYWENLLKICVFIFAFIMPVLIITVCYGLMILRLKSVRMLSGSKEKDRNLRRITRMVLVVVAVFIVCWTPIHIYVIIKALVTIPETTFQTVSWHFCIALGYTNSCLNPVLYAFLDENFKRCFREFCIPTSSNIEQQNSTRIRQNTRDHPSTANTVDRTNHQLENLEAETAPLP
# test.protocol: High content imaging based β-arrestin translocation assay, MOR agonist (MOR HCS)
# condition.details: n = 2, read-out: Average Potency MOR HCS
pEC50: −log10 of the molar value.

Reported MOR (Homo sapiens) pEC50 for item `Cc1ccccc1CSc1nnc(-c2ccccn2)n1Cc1ccco1` was < 4.49

Reported MOR (Homo sapiens) pEC50 for item `CC(C)(C)c1ccc(CSc2nnc(-c3ccccn3)n2Cc2ccco2)cc1` was < 4.49

Reported MOR (Homo sapiens) pEC50 for item `CC(C)c1ccc(CSc2nnc(-c3ccccn3)n2Cc2ccco2)cc1` was < 4.49

Reported MOR (Homo sapiens) pEC50 for item `Fc1cccc(F)c1CSc1nnc(-c2ccccn2)n1Cc1cccs1` was < 4.49

Reported MOR (Homo sapiens) pEC50 for item `Cc1ccc(CSc2nnc(-c3ccccn3)n2Cc2ccco2)cc1` was < 4.49

Reported MOR (Homo sapiens) pEC50 for item `Fc1ccc(CSc2nnc(-c3ccccn3)n2Cc2cccs2)c(F)c1` was < 4.49

Reported MOR (Homo sapiens) pEC50 for item `Brc1ccc(CSc2nnc(-c3ccccn3)n2Cc2ccco2)cc1` was < 4.49

Reported MOR (Homo sapiens) pEC50 for item `N#Cc1ccc(CSc2nnc(-c3ccccn3)n2Cc2cccs2)cc1` was < 4.49

Reported MOR (Homo sapiens) pEC50 for item `COc1cccc(CSc2nnc(-c3ccccn3)n2Cc2cccs2)c1` was < 4.49

====

# test.protocol: Plasma protein binding, human
# Type: in vitro ADME
# condition.details: plasma; human, 1 μM; read-out: bound to plasma protein (converted)
readout.type: fraction unbound at 1 μM
No unit in the answer, only the number.

Lab book: fraction unbound at 1 μM of `COc1ccc(N2CCN(CCCNC(=O)Cn3c(=O)c4cccn4c4c(C)ccnc43)CC2)cc1` noted as 0.0604

====

# target.of.assay: NET (Homo sapiens)
# test.protocol: PDSP radioligand binding assay
# condition.details: Table 5
readout.type: pKi
Friendly reminder that pKi comes from taking -log10 of the concentration in mol/L.

Lab book: pKi of COc1ccc(N2CCN(CCCNC(=O)Cn3c(=O)c4cccn4c4c(C)ccnc43)CC2)cc1 [Compound 1{3}] noted as 6.16

====

# target.of.assay: UniProt:P41145
# test.protocol: DISCOVERX β-arrestin […] assay, agonist mode (KOR DRx)
# Assay type: cell-based
# condition.details: agonist; n = 3; read-out: Average Potency KOR DRx
Record form. Attribute: pEC50. Fill in for each entry.
Friendly reminder that pEC50 comes from taking -log10 of the concentration in mol/L.

Lab book: pEC50 of `Cc1ccc(CSc2nnc(-c3ccccn3)n2Cc2cccs2)cc1` noted as 5.44

Lab book: pEC50 of `FC(F)(F)c1ccc(CSc2nnc(-c3ccccn3)n2Cc2ccco2)cc1` noted as 5.56

Lab book: pEC50 of `Clc1ccccc1CSc1nnc(-c2ccccn2)n1Cc1cccs1` noted as 4.99

Lab book: pEC50 of `Clc1ccccc1CSc1nnc(-c2ccccn2)n1Cc1ccco1` noted as 5.04

====

# target.of.assay: KOR (Homo sapiens, UniProt P41145)
# test.protocol: DISCOVERX β-arrestin […] assay, agonist mode (KOR DRx)
# Type: cell-based
# condition.details: agonist; n = 3; read-out: Average Potency KOR DRx
# Excerpt: In this campaign, two assay platforms were employed to evaluate KOR activity and selectivity: the KOR1 DISCOVERX β-Arrestin […] assay and an imaging based β-arrestin translocation assay for confirmatory and selectivity assays. The KOR1 DISCOVERX β-Arrestin […] assay is a commercial platform for direct measurement of GPCR (G protein-coupled receptor) activation by detection of β-Arrestin binding to the KOR. […]
readout.type: pEC50
Friendly reminder that pEC50 comes from taking -log10 of the concentration in mol/L.

Lab book: pEC50 of `Clc1cccc(CSc2nnc(-c3ccccn3)n2Cc2ccco2)c1` noted as 5.17

Lab book: pEC50 of `COc1cccc(CSc2nnc(-c3ccccn3)n2Cc2cccs2)c1` noted as 5.06

Lab book: pEC50 of `Fc1cc(F)cc(CSc2nnc(-c3ccccn3)n2Cc2cccs2)c1` noted as 5.14

Lab book: pEC50 of `Fc1ccc(CSc2nnc(-c3ccccn3)n2Cc2cccs2)c(C(F)(F)F)c1` noted as 5.35

Lab book: pEC50 of `COC(=O)c1ccc(CSc2nnc(-c3ccccn3)n2Cc2ccco2)cc1` noted as 5.18

Lab book: pEC50 of `Cc1c(CSc2nnc(-c3ccccn3)n2Cc2cccs2)cccc1[N+](=O)[O-]` noted as 5.24

Lab book: pEC50 of `Clc1ccc(CSc2nnc(-c3ccccn3)n2Cc2ccco2)c(Cl)c1` noted as 5.73

All values here come from patent US9345703B2.
